These entries and their values trace back to patent US20250221967A1.

Molecular target: Rb-NT (380-785) (Homo sapiens)
Construct: Rb-NT (380-785)
Sequence (P06400 380-785): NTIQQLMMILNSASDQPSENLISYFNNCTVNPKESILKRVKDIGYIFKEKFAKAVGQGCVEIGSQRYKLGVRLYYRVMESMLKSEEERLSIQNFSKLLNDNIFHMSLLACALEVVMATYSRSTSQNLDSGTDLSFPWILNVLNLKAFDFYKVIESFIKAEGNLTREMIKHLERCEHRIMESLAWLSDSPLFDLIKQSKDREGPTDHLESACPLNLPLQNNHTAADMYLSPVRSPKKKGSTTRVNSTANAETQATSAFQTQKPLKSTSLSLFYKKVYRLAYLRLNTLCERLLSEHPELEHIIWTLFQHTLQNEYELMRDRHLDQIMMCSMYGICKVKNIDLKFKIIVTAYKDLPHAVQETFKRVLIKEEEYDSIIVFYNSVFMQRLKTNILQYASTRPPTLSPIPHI
Assay: Inhibition of AP-8-239 binding to Rb-NT (380-785)
Conditions: top of inhibition curve
READOUT NAME: Inhibition of AP-8-239 binding Rb-NT (380-785) Top (%)

                                   compound  value
0  Cn1c(=O)sn(-c2cccc(OCCCNC(=O)CC[C@@H](NC(=O)c3ccc(NCCc4cc5c(=O)[nH]c(N)nc5[nH]4)cc3)C(=O)O)c2)c1=O [AP-08-237]   85.9
1  O=c1sn(-c2cccc3ccccc23)c(=O)n1Cc1ccccc1 [Tideglusib, reference compound]   86.9
2  C=CC(=O)N(C)C(=O)Nc1cccc(OC)c1 [SA-01-048]   83.8
3  Cn1c(=O)sn(-c2cccc(OCCCNC(=O)c3ccccc3)c2)c1=O [AP-08-238]   90.6
4  Cn1c(=O)sn(-c2cccc(OCCCN)c2)c1=O [AP-08-231]   83.3
5  COc1cccc(-n2sc(=O)n(C)c2=O)c1 [AP-03-084]   90.1
